target: G-protein coupled receptor 55 (Homo sapiens) (UniProt Q9Y2T6); test: GPR55 agonists via beta-arrestin recruitment, primary screen, imaging, U2OS cells, beta-arrestin-GFP redistribution (AID 1961); details: at 10 µM, stronger effect = higher value;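 further: U2OS osteosarcoma cells stably expressing GPR55 and beta-arrestin-GFP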;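 on activation: plate controls were DMSO negative control for no effect and LPI positive control for full effect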
Sequence (Q9Y2T6 whole entry, looked up): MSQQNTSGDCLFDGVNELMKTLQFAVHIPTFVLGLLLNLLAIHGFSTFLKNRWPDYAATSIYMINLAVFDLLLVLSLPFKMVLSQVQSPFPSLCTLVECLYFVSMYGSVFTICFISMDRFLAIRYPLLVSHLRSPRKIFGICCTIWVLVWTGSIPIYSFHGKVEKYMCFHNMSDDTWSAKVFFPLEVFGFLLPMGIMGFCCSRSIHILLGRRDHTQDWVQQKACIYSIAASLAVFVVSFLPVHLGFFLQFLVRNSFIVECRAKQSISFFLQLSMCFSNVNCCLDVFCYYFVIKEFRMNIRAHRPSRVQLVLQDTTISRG
Out of some 290,000 compounds screened, about 140 (0.048%) were called active. Many of the other results were omitted from the sample, so actives are more common in it than they were.
parameter: activation (%)
Response body: numeric value in %, unit text excluded.

Lookup: Item under review: `O=c1cnnc(SCc2ccc([N+](=O)[O-])cc2)[nH]1` . Reported activation?
Found: 0.2

Lookup: What do you get for `O=C(CSc1nnc(-c2ccc(F)cc2)o1)NC1CCCC1` ?
Found: -0.1

Lookup: What do you get for `Cc1ccc(NC(=S)Nc2ccc(S(=O)(=O)Nc3ncccn3)cc2)c(C)c1` ?
Found: -0.2

Lookup: What do you get for `Nc1cc(-c2ccccc2)n2c(n1)nc1ccccc12` ?
Found: 0.3

Lookup: What do you get for `Fc1cccc(NCCc2c[nH]c3ccccc23)n1` ?
Found: -0.2

Lookup: What do you get for `COc1ccc2nc(C)cc(SCC(=O)N/N=C/c3ccco3)c2c1` ?
Found: 0.2

Lookup: What do you get for `CCOC(=O)c1c(CN2CCN(CCO)CC2)n(-c2ccccc2)c2cc(Br)c(O)cc12` ?
Found: 0.3

Lookup: What do you get for CC(=O)NC1(C(F)(F)F)C(=O)N(Cc2ccccc2)C2=C1C(=O)CC(C)(C)C2 (stereo unspecified) ?
Found: 0.2

Lookup: What do you get for `O=C(Nc1ccc2c(c1)C(=O)OC2)c1ccc(F)cc1F` ?
Found: -0.2

Lookup: What do you get for `CC1=NNC(=O)/C1=C\c1cn(-c2ccccc2)nc1-c1ccc(Cl)cc1` ?
Found: 30.2

Turning to the following compound.
Lookup: Item under review: `CCOc1ccc2nc(Cl)sc2c1` . Reported activation?
Found: -0.1

---

experiment: GPR55 agonists via beta-arrestin recruitment, primary screen, imaging, U2OS cells, beta-arrestin-GFP redistribution (AID 1961); conditions: measured here: cytotoxicity, cells analyzed, at 10 µM;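 further: U2OS osteosarcoma cells stably expressing GPR55 and beta-arrestin-GFP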
Among all 290,000 compounds or so, about 140 (0.048%) were called active. What follows is part of a selection rich in actives, with near analogues and random picks from the rest.
parameter: cell count (cells)
Response body: numeric value in cells, unit text excluded.

Lookup: Item under review: `Clc1ccc(OCc2cn3ccccc3n2)c2ncccc12` . Reported cell count?
Found: 448

Next:
Lookup: Item under review: `CCOC(=O)Cn1c(CN2CCN(C(c3ccccc3)c3ccccc3)CC2)nc2c1c(=O)n(C)c(=O)n2C` . Reported cell count?
Found: 284

Lookup: What do you get for `Nc1c(-c2ccccc2)c(CSc2nc3ccccc3[nH]2)nn1-c1ccc(C(=O)O)cc1` ?
Found: 311

Lookup: What do you get for Cc1nnnn1/C(=C\c1ccccc1)C(=O)OCC(=O)N1CC2(C)CC1CC(C)(C)C2 (stereo not given) ?
Found: 330

---

biological target: G-protein coupled receptor 55 (Homo sapiens); test: GPR55 agonists via beta-arrestin recruitment, primary screen, imaging, U2OS cells, beta-arrestin-GFP redistribution (AID 1961); details: at 10 µM, stronger effect = higher value;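 further: U2OS osteosarcoma cells stably expressing GPR55 and beta-arrestin-GFP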;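 on activation: plate controls were DMSO negative control for no effect and LPI positive control for full effect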
The campaign covered roughly 290,000 compounds. About 140 (0.048%) were called active. This is one part of a sample in which actives are shown more often than they occur.
Catalogue of compounds with associated activation
Response body: numeric value in %, unit text excluded.

Lookup: Item under review: `CC1(C)CC(NC(=O)c2c(N)no[n+]2[O-])CC(C)(C)N1` . Reported activation?
Found: -0.3

Lookup: What do you get for `COCc1cc(C)nc(N)c1C#N` ?
Found: 0.1

Lookup: What do you get for CCCCN(CCCC)CC(O)COc1ccccc1Br (stereo unspecified) ?
Found: -0.2

Lookup: What do you get for `CCCc1cc(=O)n2[nH]c(C)c(-c3ccc(OC)cc3)c2n1` ?
Found: -0.1

Next:
Lookup: Item under review: Cc1ccc(NC(=O)CS(=O)CC(=O)NC23CC4CC(CC(C4)C2)C3)cc1 (stereo unspecified) . Reported activation?
Found: 0

Lookup: What do you get for `O=C1c2ccccc2C(=O)N1Cc1cccnc1` ?
Found: -0.2

Lookup: What do you get for COc1ccc(Nc2ncc3c(n2)CC(c2ccccc2)CC3=O)cc1 (stereo unspecified) ?
Found: -0.1

Lookup: What do you get for `Cc1ccc(SC[C@H](Cc2ccccc2)N2CCN(CCc3ccccc3)CCC2=O)cc1` ?
Found: -0.1

Lookup: What do you get for `COc1cccc(C(=O)Nc2cnn(C(C)C)c2)c1` ?
Found: -0.2

Lookup: What do you get for `CCOc1ncccc1C(=O)Nc1ccc(-c2ccc3nnc(C)n3n2)cc1` ?
Found: -0.2

Lookup: What do you get for COCCNC(=O)C(c1ccc(F)cc1)N(C(=O)CCC(=O)Nc1ccccn1)c1cccc(C)c1 (stereo unspecified) ?
Found: -0.2

---

target: G-protein coupled receptor 55 (Homo sapiens) (UniProt Q9Y2T6); assay: GPR55 agonists via beta-arrestin recruitment, primary screen, imaging, U2OS cells, beta-arrestin-GFP redistribution (AID 1961); conditions: at 10 µM, stronger effect = higher value;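 further: U2OS osteosarcoma cells stably expressing GPR55 and beta-arrestin-GFP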;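 on activation: plate controls were DMSO negative control for no effect and LPI positive control for full effect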
In all, about 290,000 compounds went through this assay and about 140 (0.048%) were called active. What follows is part of a selection rich in actives, with near analogues and random picks from the rest.
parameter: activation (%)
Response body: numeric value in %, unit text excluded.

Lookup: What measured activation is associated with CC1CCC(C(C)C)C(OC(=O)Cn2c(-c3ccc(F)cc3)[n+](C)c3ccccc32)C1 (stereo not drawn) on G-protein coupled receptor 55 (Homo sapiens) (UniProt Q9Y2T6)?
Found: 0.6

Lookup: What do you get for `CCN(CC)S(=O)(=O)c1ccc(N2CCOCC2)c(NCC(=O)Nc2ccc(F)cc2)c1` ?
Found: -0.1

Lookup: What do you get for `COc1cc2c3nnc(-c4ccc(F)cc4)c-3cn(Cc3ccc(F)cc3)c2cc1OC` ?
Found: 16.9

Lookup: What do you get for `CCCCCCCCCCOC(=O)Cn1c(COc2cccc(C)c2)[n+](C)c2ccccc21` ?
Found: 31.3

Lookup: What do you get for `COc1cccc(-n2c(SCC(=O)Nc3cc(C)on3)nc3ccccc3c2=O)c1` ?
Found: 0.5

Next:
Lookup: What measured activation is associated with `O=C(Cc1ccccc1)Nc1ccc(NC(=O)c2ccco2)cc1` on G-protein coupled receptor 55 (Homo sapiens) (UniProt Q9Y2T6)?
Found: 0.2

Lookup: What do you get for `CC(C)(C)C1=CC=C(C(C)(C)C)C(=O)C1=O` ?
Found: 24.1

Lookup: What do you get for `Cc1ccc2oc(=O)cc(CN3CCN(Cc4ccccc4)CC3)c2c1` ?
Found: 0

Lookup: What do you get for CC(C)OCC(O)Cn1c(N2CCCC2)nc2c1c(=O)[nH]c(=O)n2C (stereo not drawn) ?
Found: -0.2

Lookup: What do you get for `Cc1nnc(SC(C)C)n(N)c1=O` ?
Found: -1.1

Lookup: What do you get for `Cc1cccc2nc(COc3ccc4ccccc4c3Br)cn12` ?
Found: 0.4

Lookup: What do you get for `CC(C)(C)C1=CC(=Nc2ccccc2N)C=C(C(C)(C)C)C1=O` ?
Found: -0.1

Lookup: What do you get for `CN(C)c1ccnc(Nc2ccccc2)c1C#N` ?
Found: 0.3

Lookup: What do you get for `Cc1cccc2nc(COc3ccc(Cl)c4cccnc34)cn12` ?
Found: 80.9

Lookup: What do you get for `CCOc1ccccc1CNC(=O)CCc1cn(CC)c2ccccc12` ?
Found: 0.3

---

test: GPR55 agonists via beta-arrestin recruitment, primary screen, imaging, U2OS cells, beta-arrestin-GFP redistribution (AID 1961); conditions: measured here: cytotoxicity, cells analyzed, at 10 µM;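 further: U2OS osteosarcoma cells stably expressing GPR55 and beta-arrestin-GFP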
The campaign covered roughly 290,000 compounds. About 140 (0.048%) were called active. The sample as a whole holds a higher share of actives than the screen did.
parameter: cell count (cells)
Response body: numeric value in cells, unit text excluded.

Answered examples (6):
Lookup: Item under review: `C=CCSc1nnc2n(CCc3ccccc3)c(=O)c3c4c(sc3n12)COC(C)(C)C4` . Reported cell count?
Found: 369

Lookup: What do you get for `Cc1cc(=O)[nH]c(SCC(=O)N2CCCCCC2)n1` ?
Found: 340

Lookup: What do you get for CC(C)N1CCN(Cc2ccc(C#CC(C)(C)O)s2)CC1CCO (stereo unspecified) ?
Found: 368

Lookup: What do you get for `COc1cc(/C=C(\NC(=O)c2ccccc2)C(=O)NCC(=O)O)c([N+](=O)[O-])cc1OC` ?
Found: 349

Lookup: What do you get for COc1ccccc1P(=O)(c1ccccc1)c1ccc([N+](=O)[O-])cc1 (stereo unspecified) ?
Found: 384

Lookup: What do you get for `Cc1ccc(C(=O)N2CCN(c3ccccn3)CC2)cc1C` ?
Found: 396

Next:
Lookup: Item under review: `CCOC(=O)N1CCN(c2c(NCCCOC(C)C)c(=O)c2=O)CC1` . Reported cell count?
Found: 327

Lookup: What do you get for `Fc1cccc(NCCc2c[nH]c3ccccc23)n1` ?
Found: 334

Lookup: What do you get for `CCOC(=O)CCS(=O)(=O)c1nc(-c2ccccc2)cc(C(F)(F)F)n1` ?
Found: 310

The measured values listed here are drawn from PubChem BioAssay AID1961.
